Source: PubChem BioAssay AID1850

- experiment: PhoP regulon inhibitors, Salmonella typhi PhoP promoter GFP reporter, confirmatory (AID 1850);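 note: 0% = induced wells with vehicle and 100% = uninduced wells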
- stated.conditions: fluorescence, 4 h, at 50 µM, stronger effect = higher value
In all, about 310,000 compounds went through this assay and about 1,000 (0.32%) were called active. These entries were drawn from the full list. Measured potencies and affinities stand elsewhere.
outcome.measure: inhibition (%)
Write the value in % as a bare number.

Lookup: Reported inhibition for "COc1ccc(C(=O)N/N=C/c2c(C)nn(-c3ccccc3)c2OC)cc1" : what is it?
Found: -1.74

Lookup: Reported inhibition for "Nc1c2ccccc2nc2ccccc12" : what is it?
Found: 17.1

Lookup: Reported inhibition for "COc1ccc(Br)cc1C(=O)NC(=S)Nc1c(C)n(C)n(-c2ccccc2)c1=O" : what is it?
Found: 14.4

Lookup: Reported inhibition for "N/C(=N\OC(=O)c1ccc(Cl)cc1)c1cccnc1" : what is it?
Found: 8.82

Lookup: Reported inhibition for "N/C(=N\OS(=O)(=O)c1ccccc1)c1ccncc1" : what is it?
Found: 6.44

Lookup: Reported inhibition for "COc1cc(OC)c(OC)cc1CNCCNC(=O)c1nonc1N" : what is it?
Found: 6.25

Lookup: Reported inhibition for CCOc1ccc(NC(=O)CSc2nc3ccccc3nc2N2CC(C)OC(C)C2)cc1 (stereo not drawn) : what is it?
Found: -3.96

Lookup: Reported inhibition for Cc1ccc(OCC(O)Cn2c(=N)n(Cc3ccccc3)c3ccccc32)cc1 (stereo not drawn) : what is it?
Found: -18.7

Lookup: Reported inhibition for Cc1ccc(-n2nc(C)c(C(C)(O)C(F)(F)F)c2N)cc1 (stereo not drawn) : what is it?
Found: 9.79

Lookup: Reported inhibition for COc1ccc(OCC(O)Cn2c(=N)n(Cc3ccccc3)c3ccccc32)cc1 (stereo not drawn) : what is it?
Found: 10.7

Lookup: Reported inhibition for "CC(=O)c1c(C)[nH]c(C(=O)COC(=O)c2ccc3c(=O)n4c(nc3c2)CCC4)c1C" : what is it?
Found: -1.34

Lookup: Reported inhibition for COc1ccccc1C1/C(=C(\O)c2ccc3c(c2)OCCO3)C(=O)C(=O)N1CCCn1ccnc1 (stereo not drawn) : what is it?
Found: 5.32

Lookup: Reported inhibition for "N/C(=N\OC(=O)COc1ccc2ccccc2c1)c1cccnc1" : what is it?
Found: -4.96

Lookup: Reported inhibition for "O/N=C/c1ccc(OCc2ccccc2F)c(Cl)c1" : what is it?
Found: -2.37

Lookup: Reported inhibition for "CN(C)C(=O)c1ccc(-n2cnc3ccccc3c2=O)cc1" : what is it?
Found: 6.15

Lookup: Reported inhibition for "CSc1nc(N2CCOCC2)cc(N2CCOCC2)n1" : what is it?
Found: 2.38

Lookup: Reported inhibition for "CCCCCOc1ccc(CSCCNC(=S)Nc2ccccc2)cc1" : what is it?
Found: -18.1

Lookup: Reported inhibition for "CCOC(=O)Cc1csc(NC(NC(=O)CC)(C(F)(F)F)C(F)(F)F)n1" : what is it?
Found: 0.93

Lookup: Reported inhibition for "COc1ccccc1N1CCN(S(=O)(=O)CCNC(=O)C2CCCCC2)CC1" : what is it?
Found: -2.35

Lookup: Reported inhibition for "O/N=C/c1ccc(OCc2ccccc2)c(Br)c1" : what is it?
Found: 17.4

Lookup: Reported inhibition for CC1(C)CC(=O)C2=C(C1)NC(=O)CC2c1cc(F)ccc1F (stereo not drawn) : what is it?
Found: 8.24

Lookup: Reported inhibition for "CC(=O)c1ccccc1OCCn1nc(C(=O)O)c2ccccc2c1=O" : what is it?
Found: 1.39

Lookup: Reported inhibition for "COc1ccc(/C=C/C(=O)c2cc(Cl)cc(Cl)c2O)c(OC)c1" : what is it?
Found: 1.28

* * *

- experiment: PhoP regulon inhibitors, Salmonella typhi PhoP promoter GFP reporter, confirmatory (AID 1850);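 note: 0% = induced wells with vehicle and 100% = uninduced wells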
- stated.conditions: fluorescence, 4 h, at 50 µM, stronger effect = higher value
Among all 310,000 compounds or so, about 1,000 (0.32%) were called active. Not all results are given here. Results with a measured potency or affinity are listed apart.
Please respond with reported inhibition for every item in the list.

Lookup: Reported inhibition for "O=C(N/N=C/c1ccc(O)c([N+](=O)[O-])c1)C(O)(c1ccccc1)c1ccccc1" : what is it?
Found: 4.8% (inactive)

Lookup: Reported inhibition for "CCOc1ccc(NC2=NC(C)(C)N=C(N)N2)cc1" : what is it?
Found: 5.96% (inactive)

Lookup: Reported inhibition for "COc1cc([N+](=O)[O-])cc(/C=N/NC(=O)c2cncc(Br)c2)c1O" : what is it?
Found: 12.7% (inactive)

Lookup: Reported inhibition for "COc1cc([N+](=O)[O-])cc(/C=N/NC(=O)c2ccc(C)nc2)c1O" : what is it?
Found: 18.7% (inactive)

Lookup: Reported inhibition for "CN(C)c1ccc(/C=C/c2nc3ccccc3s2)cc1" : what is it?
Found: -9.15% (inactive)

Lookup: Reported inhibition for "COc1cc([N+](=O)[O-])cc(/C=N/NC(=O)c2cc(C)nc3ccccc23)c1O" : what is it?
Found: 21.1% (inactive)

Lookup: Reported inhibition for "COc1cc(/C=N/NC(=O)c2ccc(C)nc2)cc([N+](=O)[O-])c1O" : what is it?
Found: 2.56% (inactive)

Lookup: Reported inhibition for "O=C(N/N=C/c1cccc([N+](=O)[O-])c1O)C(O)(c1ccccc1)c1ccccc1" : what is it?
Found: 2.48% (inactive)

Lookup: Reported inhibition for "O=C(N/N=C/c1cc([N+](=O)[O-])ccc1O)Nc1ccccc1" : what is it?
Found: 17.7% (inactive)

Lookup: Reported inhibition for "CCCCOc1ccc(N2C(N)=NC(N)=NC23CCCCC3)cc1" : what is it?
Found: 4.38% (inactive)

* * *

- experiment: PhoP regulon inhibitors, Salmonella typhi PhoP promoter GFP reporter, confirmatory (AID 1850);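 note: 0% = induced wells with vehicle and 100% = uninduced wells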
- stated.conditions: fluorescence, 4 h, at 50 µM, stronger effect = higher value
Hit rate of the full screen: of about 310,000 compounds, about 1,000 (0.32%) were called active. Not all results are given here. Measured potencies and affinities stand elsewhere.
outcome.measure: inhibition (%)
Write the value in % as a bare number.

Lookup: Reported inhibition for "COc1ccc(C(=O)CCN2CCN(c3ccccc3F)CC2)cc1" : what is it?
Found: 8.74

Lookup: Reported inhibition for CC1(c2ccc(Cl)cc2Cl)NC(=O)N(CC(=O)Nc2ccc3[nH]c(=O)[nH]c3c2)C1=O (stereo not given) : what is it?
Found: -3.74

Lookup: Reported inhibition for "COc1cccc2cc(C(=O)OCC(=O)NCc3ccc4c(c3)OCO4)c(=O)oc12" : what is it?
Found: 7.88

Lookup: Reported inhibition for "O=C(CCN1CCOCC1)c1ccc(Br)cc1" : what is it?
Found: 24.1

Lookup: Reported inhibition for "Cc1ccc(C(=O)NCC(=O)Nc2cccc(C(F)(F)F)c2)cc1" : what is it?
Found: 7

Lookup: Reported inhibition for "O=C(NCCN1CCN(C(=O)c2ccc(Br)cc2)CC1)c1ccc(Br)cc1" : what is it?
Found: -4.36

Lookup: Reported inhibition for "O=C(CCN1CCN(c2ccc([N+](=O)[O-])cc2)CC1)c1ccc(Cl)cc1" : what is it?
Found: -10.4

Lookup: Reported inhibition for "COc1ccc(S(=O)(=O)N2CCOCC2)cc1N=Nc1sc(N)nc1-c1ccccc1" : what is it?
Found: 0.93

Lookup: Reported inhibition for "NC(=O)CSc1nnc(Cn2c(=O)sc3ccccc32)n1CCc1ccccc1" : what is it?
Found: 1.95

Lookup: Reported inhibition for "O=C(Nc1c(C(=O)N2CCOCC2)cnn1-c1ccccc1)c1cccc(F)c1" : what is it?
Found: -2.99

* * *

- experiment: PhoP regulon inhibitors, Salmonella typhi PhoP promoter GFP reporter, confirmatory (AID 1850);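 note: 0% = induced wells with vehicle and 100% = uninduced wells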
- stated.conditions: fluorescence, 4 h, at 50 µM, stronger effect = higher value
The campaign covered roughly 310,000 compounds. About 1,000 (0.32%) were called active. The list is a sample of the results. Measured potencies and affinities stand elsewhere.
Please respond with reported inhibition for every item in the list.

Lookup: Reported inhibition for "C#CCOCCOCCOCCNc1nc(N2CCOCC2)nc(N2CCN(C(=O)CCCCCCCCCCNC(=O)[C@@H]([C@H](C)CC)n3cc(CCCCCN)nn3)CC2)n1" : what is it?
Found: 2.64% (inactive)

Lookup: Reported inhibition for "CCCCCCSc1ccc(-c2nc3ccccn3c2NCCCC)cc1" : what is it?
Found: -1.64% (inactive)

Lookup: Reported inhibition for "C[n+]1ccccc1/C=C/c1ccc(F)c(F)c1" : what is it?
Found: -2.41% (inactive)

Lookup: Reported inhibition for "CCOCC(=O)Nc1nnc(SCCOC)s1" : what is it?
Found: -8.99% (inactive)

Lookup: Reported inhibition for "CCCSc1nc(N)cc(=O)[nH]1" : what is it?
Found: 5.93% (inactive)

Lookup: Reported inhibition for "Cc1ccc(S(=O)(=O)NNC2=NS(=O)(=O)c3ccccc32)c(C)c1" : what is it?
Found: 0.74% (inactive)

Lookup: Reported inhibition for "O=C(C[n+]1cc(-c2ccc(F)cc2)n2c1CCC2)N1c2ccccc2Sc2ccccc21" : what is it?
Found: -2.79% (inactive)

Lookup: Reported inhibition for "CC(=O)Nc1ccc(S(=O)(=O)NNC(=O)COc2cccc(C)c2)cc1" : what is it?
Found: 9.44% (inactive)

Lookup: Reported inhibition for "Cc1ccc(S(=O)(=O)NNc2ccccc2)cc1" : what is it?
Found: 32.1% (inactive)

Lookup: Reported inhibition for "Cc1ccccc1C(=O)Nc1ccnn1C1CCN(CCCc2ccccc2)CC1" : what is it?
Found: -1.21% (inactive)

Lookup: Reported inhibition for "O=C(C[n+]1cc(-c2ccccc2)n2c1CCC2)N1c2ccccc2Sc2ccccc21" : what is it?
Found: 13.9% (inactive)

Lookup: Reported inhibition for "Cc1ccc(-c2c[n+](CC(=O)N3c4ccccc4Sc4ccccc43)c3n2CCC3)cc1" : what is it?
Found: 6.09% (inactive)

Lookup: Reported inhibition for "COc1ccc(-c2c[n+](CC(=O)N3c4ccccc4Sc4ccccc43)c3n2CCC3)cc1" : what is it?
Found: 18.6% (inactive)

Lookup: Reported inhibition for "CCN(Cc1ccccc1)C(=O)c1cccc(S(=O)(=O)N2CCN(c3ccccc3)CC2)c1" : what is it?
Found: 1.18% (inactive)

Lookup: Reported inhibition for "O=C(NC(=S)Nc1ccc(S(=O)(=O)Nc2nccs2)cc1)c1cccc(F)c1" : what is it?
Found: 9.55% (inactive)

Lookup: Reported inhibition for "CC(/C=C/c1ccc2c(c1)OCO2)=N/NC(=O)COc1ccc(C)cc1" : what is it?
Found: -7.1% (inactive)

Lookup: Reported inhibition for "Cc1ccc(NC(=O)CSc2ncccc2C(=O)Oc2cccc([N+](=O)[O-])c2)cc1Cl" : what is it?
Found: -7.7% (inactive)

Lookup: Reported inhibition for "Cc1cccc(NC(=O)Nc2ccc(S(N)(=O)=O)cc2)c1" : what is it?
Found: -0.31% (inactive)

Lookup: Reported inhibition for "O=C(N/N=C/c1ccccn1)c1ccco1" : what is it?
Found: 8.62% (inactive)

Lookup: Reported inhibition for "C#CCOCCOCCOCCNc1nc(N2CCN(C(=O)CCCCCCCCCCNC(=O)Cn3cc(C[C@@H](C)O)nn3)CC2)nc(N2CCN(C(=O)CCCCCCCCCCNC(=O)[C@@H]([C@H](C)O)n3cc(C)nn3)CC2)n1" : what is it?
Found: -25.3% (inactive)

Lookup: Reported inhibition for "Cc1ccc(/C=N/NC(=O)c2cccs2)s1" : what is it?
Found: -3.78% (inactive)
